- Test system: MST4;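 further: KINOMEscan kinase panel screen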
- run conditions: concentration: 1 μM, replicates: in singlicate; n = 1
// %Inh lookup, one value per entry
measured parameter: %Inh (%)

compound="COc1ccc(Nc2nccc(N3CCC(NC(=O)c4cc5ccccc5s4)C3)n2)cc1 (stereo not drawn)" measured_parameter=%Inh value_observed=0
compound="CC(=O)c1cccc(NC(=O)NC2CCN(c3ccnc(Nc4ccc(F)cc4)n3)C2)c1 (stereo not drawn)" measured_parameter=%Inh value_observed=0
compound=COc1cc2ncnc(Nc3cccc(Br)c3)c2cc1OC.Cl measured_parameter=%Inh value_observed=0
compound=Cc1ccc(NC(=O)Nc2ccccc2F)cc1-c1ccc(C(=O)Nc2ccncc2)cc1 measured_parameter=%Inh value_observed=0
compound="COc1ccc(Nc2nccc(N3CCC(NC(=O)C(C)c4ccc(Cl)cc4)C3)n2)cc1 (stereo not drawn)" measured_parameter=%Inh value_observed=3
compound=O=C(Nc1n[nH]c2nc(-c3cccs3)c(Br)cc12)C1CC1 measured_parameter=%Inh value_observed=5
